- protocol details: Assay for stability in liver microsomes
- Format: in vitro ADME
- test settings: human liver microsomes; liver intrinsic clearance rate
observed property: CLint scaled at 1 µM (mL/min/kg)

Reference set, count: 2
>  <molecule>
CCn1c(-c2cc(N3CCN(CCS(C)(=O)=O)CC3)cnc2[C@H](C)OC)c2c3cc(ccc31)-c1csc(n1)C[C@H](NC(=O)[C@H]1[C@H](C)[C@@H]1C)C(=O)N1CCC[C@H](N1)C(=O)OCC1(CC1)C2 (single isomer, unassigned)

>  <recorded result>
33.2

$$$$
>  <molecule>
CCn1c(-c2cc(N3CCN(C)CC3)cnc2[C@H](C)OC)c2c3cc(ccc31)-c1csc(n1)C[C@H](NC(=O)[C@H]1[C@H](C)[C@@H]1C)C(=O)N1CCC[C@H](N1)C(=O)OCC(C)(C)C2 (atropisomer, axis not shown; (Ra)) [Control compound 1, reference compound]

>  <recorded result>
136

$$$$

1 = CCn1c(-c2cc(C#CCN3CCS(=O)(=O)CC3)cnc2[C@H](C)OC)c2c3cc(ccc31)-c1csc(n1)C[C@H](Nc1nnc3cc(C)ccn13)C(=O)N1CCC[C@H](N1)C(=O)OCC(C)(C)C2 (atropisomer, axis not shown; (Ra))
2 = CCn1c(-c2cc(C#CCN3CCS(=O)(=O)CC3)cnc2[C@H](C)OC)c2c3cc(ccc31)-c1csc(n1)C[C@H](NC(=O)[C@H]1[C@H](C)[C@@H]1C)C(=O)N1CCC[C@H](N1)C(=O)OCC(C)(C)C2 (atropisomer, axis not shown; (Ra))
*Q* // pick min by CLint scaled at 1 µM: 1 , 2 Mark your answer with the label of the selected entry.
*A* 1

###

- Test system: p-ERK in NCI-H441 cells (KRAS G12V mutation)
- protocol details: Cell p-ERK assay (HTRF) in NCI-H441 cells
- Format: cell-based, human
- test settings: NCI-H441 cells, 3 h compound incubation, HTRF p-ERK T202/Y204; read-out: H441 p-ERK IC50
pIC50: −log10 of the molar value.
observed property: pIC50

>  <compound>
CCn1c(-c2cc(C#CCN3CC(F)C3)cnc2[C@H](C)OC)c2c3cc(ccc31)-c1csc(n1)C[C@H](NC(=O)[C@H]1[C@H](C)[C@@H]1C)C(=O)N1CCC[C@H](N1)C(=O)OCC(C)(C)C2 (atropisomer, axis not shown; (Ra)) [Compound Z383-1]

>  <pIC50>
8.55

$$$$
>  <compound>
CO[C@@H](C)c1ncc(OCCN2CCOC3(CC3)C2)cc1-c1c2c3cc(ccc3n1CC(F)(F)F)-c1csc(n1)C[C@H](NC(=O)[C@H]1[C@H](C)[C@@H]1C)C(=O)N1CCC[C@H](N1)C(=O)OCC1(CC1)C2 (atropisomer, axis not shown; (Ra)) [Compound Z380]

>  <pIC50>
8.44

$$$$

P = CCn1c(-c2cc(C#CCN3CCCOCC3)cnc2[C@H](C)OC)c2c3cc(ccc31)-c1csc(n1)C[C@H](NC(=O)[C@H](C(C)C)N(C)[S@@](C)(=O)=NC)C(=O)N1CCC[C@H](N1)C(=O)OCC(C)(C)C2 (single isomer, unassigned) [Compound Z912-2]
Q = CCn1c(-c2cc(C#CC3(N4CCC4)CC3)cnc2[C@H](C)OC)c2c3cc(ccc31)-c1csc(n1)C[C@H](NC(=O)[C@H]1[C@H](C)[C@@H]1C)C(=O)N1CCC[C@H](N1)C(=O)OCC(C)(C)C2 (atropisomer, axis not shown; (Ra)) [Compound Z836-1]
*Q* // pick min by pIC50: P , Q Mark your answer with the label of the selected entry.
*A* P

###

- Test system: p-ERK in NCI-H441 cells (KRAS G12V mutation)
- protocol details: Cell p-ERK assay (HTRF) in NCI-H441 cells
- Assay type: cell-based, human
- test settings: NCI-H441 cells, 3 h compound incubation, HTRF p-ERK T202/Y204; read-out: H441 p-ERK IC50
observed property: IC50 (nM)

>  <molecule>
CCn1c(-c2cc(OCCN3CCS(=O)(=O)CC3)cnc2[C@H](C)OC)c2c3cc(ccc31)-c1csc(n1)C[C@H](NC(=O)[C@H]1C[C@@H]1C)C(=O)N1CCC[C@H](N1)C(=O)OCC(C)(C)C2 (atropisomer, axis not shown; (Ra))

>  <recorded result>
0.3

$$$$

a = CCn1c(-c2cc(OCCN3CC[S+]([O-])CC3)cnc2[C@H](C)OC)c2c3cc(ccc31)-c1csc(n1)C[C@H](NC(=O)[C@H]1[C@H](C)[C@@H]1C)C(=O)N1CCC[C@H](N1)C(=O)OCC(C)(C)C2 (atropisomer, axis not shown; (Sa)) [Compound Z600-1]
b = CCn1c(-c2cc(C#CC(=O)N3CCCOCC3)cnc2[C@H](C)OC)c2c3cc(ccc31)-c1csc(n1)C[C@H](NC(=O)[C@H]1[C@H](C)[C@@H]1C)C(=O)N1CCC[C@H](N1)C(=O)OCC(C)(C)C2 [Compound Z810A]
c = CCn1c(-c2cc(OCC(C)(C)N3CCS(=O)(=O)CC3)cnc2[C@H](C)OC)c2c3cc(ccc31)-c1csc(n1)C[C@H](NC(=O)[C@H]1[C@H](C)[C@@H]1C)C(=O)N1CCC[C@H](N1)C(=O)OCC(C)(C)C2 (atropisomer, axis not shown; (Ra)) [Compound Z667]
*Q* Arrange the 3 entries by IC50 so the values rise. # answer = labels listed in requested order
*A* c, b, a
(c: 0.38 nM, b: 0.63 nM, a: 82.7 nM)

###

- protocol details: Pharmacokinetic study in rats
- Assay type: in vivo, Sprague-Dawley (SD) rats
- test settings: Sprague-Dawley, rat, plasma; male SD rats, PO (intragastric), dose 10 mg/kg; read-out: AUC
observed property: AUC (ng·h/mL)

Reference set, count: 3
>  <compound>
CCn1c(-c2cc(C#C[C@@H]3COCCN3C)cnc2[C@H](C)OC)c2c3cc(ccc31)-c1csc(n1)C[C@H](NC(=O)[C@H]1[C@H](C)[C@@H]1C)C(=O)N1CCC[C@H](N1)C(=O)OCC(C)(C)C2 (atropisomer, axis not shown; (Ra)) [Compound Z672]

>  <recorded result>
2940

$$$$
>  <compound>
CCn1c(-c2cc(C#CCN3CCC3)cnc2[C@H](C)OC)c2c3cc(ccc31)-c1csc(n1)C[C@H](NC(=O)[C@H]1[C@H](C)[C@@H]1C)C(=O)N1CCC[C@H](N1)C(=O)OCC(C)(C)C2 (single isomer, unassigned) [Compound Z554]

>  <recorded result>
16600

$$$$
>  <compound>
CCn1c(-c2cc(C#CCN3CCCOCC3)cnc2[C@H](C)OC)c2c3cc(ccc31)-c1csc(n1)C[C@H](NC(=O)CC(C)C)C(=O)N1CCC[C@H](N1)C(=O)OCC(C)(C)C2 (single isomer, unassigned) [Compound Z803]

>  <recorded result>
8400

$$$$

A = CCn1c(-c2cc(C#CCN3CCN(C)C(=O)C3)cnc2[C@H](C)OC)c2c3cc(ccc31)-c1csc(n1)C[C@H](NC(=O)[C@H]1[C@H](C)[C@@H]1C)C(=O)N1CCC[C@H](N1)C(=O)OCC(C)(C)C2 (atropisomer, axis not shown; (Ra)) [Compound Z793]
B = CCn1c(-c2cc(C#CCN3CCC(C(F)(F)F)CC3)cnc2[C@H](C)OC)c2c3cc(ccc31)-c1csc(n1)C[C@H](NC(=O)[C@H]1[C@H](C)[C@@H]1C)C(=O)N1CCC[C@H](N1)C(=O)OCC(C)(C)C2 (atropisomer, axis not shown; (Ra)) [Compound Z778]
C = CCn1c(-c2cc(C#CCN3CCCOCC3)cnc2[C@H](C)OC)c2c3cc(ccc31)-c1csc(n1)C[C@H](NC(=O)[C@H]1C[C@@H]1C)C(=O)N1CCC[C@H](N1)C(=O)OCC(C)(C)C2 (single isomer, unassigned) [Compound Z604]
D = CCn1c(-c2cc(C#CCN3CCS(=O)(=O)CC3)cnc2[C@H](C)OC)c2c3cc(ccc31)-c1csc(n1)C[C@H](Nc1nnc3cc(C)ccn13)C(=O)N1CCC[C@H](N1)C(=O)OCC(C)(C)C2 (atropisomer, axis not shown; (Ra)) [Compound Z911]
*Q* Arrange the 4 entries by AUC so the values rise. # answer = labels listed in requested order
*A* D, B, A, C

###

- protocol details: Pharmacokinetic study in rats
- Format: in vivo, Sprague-Dawley (SD) rats
- test settings: Sprague-Dawley, rat, plasma; male SD rats, PO (intragastric), dose 10 mg/kg; read-out: Cmax
observed property: Cmax (ng/mL)
Express your answer in ng/mL, writing the number without its unit.

*Q* Tell us which Cmax value is on record for CCn1c(-c2cc(N3CCN(C)CC3)cnc2[C@H](C)OC)c2c3cc(ccc31)-c1csc(n1)C[C@H](NC(=O)[C@H]1[C@H](C)[C@@H]1C)C(=O)N1CCC[C@H](N1)C(=O)OCC(C)(C)C2 (atropisomer, axis not shown; (Ra)) [Control compound 1, reference compound]
*A* 365
